target: Sialic acid-binding Ig-like lectin 9 (Homo sapiens) (UniProt Q9Y336); assay: Hs-Siglec9 ALPHAscreen SOP 20170721; design: scale not given: direction of the effect not stated beside the values; conditions: 10 µM
Sequence (Q9Y336 whole entry): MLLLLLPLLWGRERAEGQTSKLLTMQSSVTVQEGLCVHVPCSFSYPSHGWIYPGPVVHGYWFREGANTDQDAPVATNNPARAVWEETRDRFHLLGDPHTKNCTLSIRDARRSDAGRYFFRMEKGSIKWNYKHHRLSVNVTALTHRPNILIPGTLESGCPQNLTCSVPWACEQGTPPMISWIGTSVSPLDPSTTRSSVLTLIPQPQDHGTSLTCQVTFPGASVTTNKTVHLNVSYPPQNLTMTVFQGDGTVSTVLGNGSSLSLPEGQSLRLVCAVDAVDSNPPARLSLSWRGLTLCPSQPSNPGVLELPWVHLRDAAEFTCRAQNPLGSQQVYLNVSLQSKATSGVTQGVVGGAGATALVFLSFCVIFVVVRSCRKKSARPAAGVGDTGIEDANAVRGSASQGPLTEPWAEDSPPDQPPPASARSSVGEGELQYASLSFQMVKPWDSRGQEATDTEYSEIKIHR
Lab note - cut at 10% for Percent Effect: true (1) if strictly below, false (0) if not.

Examples with answers:
IN: Given the entry "CCNc1cc2c(nn1)CCN(C(=O)c1cccc3c1OCCO3)C2" , would its reported Percent Effect be below 10%?
OUT: false (0)

IN: Given the entry "Cc1csc2ncc(-c3ccnc(N4CCN(C)CC4)n3)c(=O)n12" , would its reported Percent Effect be below 10%?
OUT: true (1)

IN: Given the entry "Cc1nc(N2CCN(C(=O)C(C)(C)C)CC2)cc(-n2cnc(C)c2C)n1" , would its reported Percent Effect be below 10%?
OUT: true (1)

IN: Given the entry "CN(CCCOc1ccccc1)C(=O)CN1CCc2cncnc2C1" , would its reported Percent Effect be below 10%?
OUT: true (1)

IN: Given the entry "COc1cc(CNCc2c(C(C)C)nn(C)c2N(C)C)ccn1" , would its reported Percent Effect be below 10%?
OUT: true (1)

Further cases:
IN: Given the entry "CC(C)c1noc(CN(Cc2cccs2)C2CC2)n1" , would its reported Percent Effect be below 10%?
OUT: false (0)

IN: Given the entry "CC(=O)N1CCCN(C(=O)c2oc(Br)cc2C)CC1" , would its reported Percent Effect be below 10%?
OUT: false (0)

IN: Given the entry O=C(CCc1cnn(-c2ccccc2)c1)N1CCCC(n2cccn2)C1 (stereo not given) , would its reported Percent Effect be below 10%?
OUT: false (0)

IN: Given the entry "CCn1c(CN(C)C)nnc1C1CCN(c2ccnc(C)c2)CC1" , would its reported Percent Effect be below 10%?
OUT: true (1)

###

species on record: Homo sapiens; assay: To identify inhibition of the IFN signalling (Jak-Stat) pathway via expression of an eGFP reporter gene under the control of an IFN-stimulated response element (ISRE) containing MxA promoter.; format: functional; parameters: scale not given: direction of the effect not stated beside the values; settings: 30 µM
PROPERTY MEASURED: Percent Effect (%)
Give bare numbers, in %.

Take a look at these entries with their results.
In plain terms, "CN(C)S(=O)(=O)N1C[C@@H]2CC[C@H](C1)N(Cc1ccc3nsnc3c1)C2" has a documented Percent Effect of 4.28

In plain terms, O=C(c1ccc(NC2CC2)nc1)N1CCCC(n2cccn2)C1 (centres undefined) has a documented Percent Effect of 18.5

In plain terms, "O=C(NC1CC1)[C@H]1C[C@@H]2CCN(CCc3ccccc3)C[C@H]2O1" has a documented Percent Effect of 4.51

Further cases:
In plain terms, O=C(NCC1COCc2c(-c3cccnc3)nnn2C1)c1cccs1 (centres undefined) has a documented Percent Effect of 4.75

###

target: Arginase-2, mitochondrial (Homo sapiens) (UniProt P78540); experiment: in vitro enzyme assay to detect the production of urea directly proportional to the activity of Arginase II; assay type: functional; design: scale not given: in the data most compounds retested in dose-response had high values; conditions: 33.3 µM
Sequence (P78540 whole entry): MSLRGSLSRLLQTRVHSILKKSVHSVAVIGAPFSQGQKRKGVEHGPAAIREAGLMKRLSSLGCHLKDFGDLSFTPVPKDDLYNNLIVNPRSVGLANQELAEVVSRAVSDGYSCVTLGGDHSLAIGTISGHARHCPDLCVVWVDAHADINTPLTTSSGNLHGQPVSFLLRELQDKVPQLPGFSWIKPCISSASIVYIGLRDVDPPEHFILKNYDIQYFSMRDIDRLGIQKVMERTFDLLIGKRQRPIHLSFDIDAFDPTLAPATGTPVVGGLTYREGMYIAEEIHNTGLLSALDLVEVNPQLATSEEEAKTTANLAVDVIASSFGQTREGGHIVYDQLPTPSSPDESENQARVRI
PROPERTY MEASURED: Percent Effect (%)
Give bare numbers, in %.

In plain terms, "COc1ccccc1OCCN1CCC(N2CCNC2=O)CC1" has a documented Percent Effect of 3.51

In plain terms, COc1ccc(OC)c(C2CCN(Cc3nc(C)n4ccccc34)C2)c1 (stereo not drawn) has a documented Percent Effect of 17.1

In plain terms, CCOCC1CN(Cc2ccc(OC)cc2)Cc2nn(C)cc21 (stereo not drawn) has a documented Percent Effect of 0.405

Your task in this section: give Percent Effect for each listed record.
1. Cc1cc(CN2CCCC2Cn2cncn2)no1 (stereo not drawn)
2. CCC(CC)C(CNC(=O)Nc1cc(C)nn1C)N1CCOCC1 (stereo not drawn)
3. O=C(NCc1ccoc1)Nc1ccc(CN2CCOC2=O)cc1
4. Cc1ncc(CNC(=O)Cc2ccc(Cl)cc2)c(C2CCCN2C)n1 (stereo not drawn)
5. CCc1nc(C2CCCN2C(=O)c2cc(C3CC3)[nH]n2)no1 (stereo not drawn)

OUT:
1. -2.05
2. -5.32
3. 0
4. -2.55
5. 1.77

Your task in this section: give Percent Effect for each listed record.
1. COC(=O)C(C)(C)NC(=O)C1CC(=O)N(C2CCCC2)C1 (stereo not drawn)
2. O=C1NCC2(CCCN(Cc3ccc(Cl)s3)C2)Oc2ccccc21 (stereo not drawn)
3. CC(Cn1cccn1)NC(=O)CCc1ccc(S(N)(=O)=O)cc1 (stereo not drawn)
4. Cc1ccsc1C(=O)NCCCn1nc2ccccn2c1=O

OUT:
-2.79
-1.33
-2.74
1.66

Your task in this section: give Percent Effect for each listed record.
1. O=C(CO)N1CCc2onc(Cn3cccn3)c2C1
2. COc1cccc(-n2nnc(C(=O)N3CCCC3)c2C)c1
3. COc1ccc(OC)c(-c2nc(CN(C)Cc3nncn3C)c(C)o2)c1
4. COCCCNC(=O)CN(C)C(=O)c1cc(C)sc1C
5. CCn1nc(C)c2nc(C(C)C)nc(NCCOC)c21
6. Cc1ccccc1N1CC2(CCN(S(=O)(=O)C3CC3)C2)CC1=O (stereo not drawn)
7. CC(C(=O)NCCCn1ccnc1)n1cc(Br)cn1 (stereo not drawn)
8. COCCC(=O)N1CC[C@@H](N(C)C)[C@@H]1Cc1ccccc1

OUT:
[-1.62, 4.92, 0.909, -1.66, -4.4, 4.57, -33.1, -1.17]

Your task in this section: give Percent Effect for each listed record.
1. COCCO[C@H]1CCN(C(=O)C2CCOCC2)[C@H]1Cc1ccncc1
2. CNC(=O)C1CCN(C(=O)c2cccn2Cc2cccs2)CC1
3. CCOc1ccccc1C1CCCN1 (stereo not drawn)
4. Clc1ccc(OCCCN2CCN(c3cnccn3)CC2)cc1
5. O=C(NCCNc1ncccn1)N1CCCC(C(F)(F)F)C1 (stereo not drawn)
6. COC[C@@H]1CC[C@H]2[C@H](CCN2S(=O)(=O)c2ccc(OC)cc2)O1

OUT:
-1.17
2.85
-7.1
-2.66
-1.43
-1.62
